Cited source for all entries: PubChem BioAssay AID2060621

Quick reference: viability, T/C of the listed items.
# Test system: 324938-238-R-J1-PDC complex spheroids viability;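 note: viability read after seven days of drug exposure; 100% = DMSO vehicle control wells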
# run_description: Anticancer human tumor 324938-238-R-J1-PDC patient-derived bladder carcinoma cell line growth inhibition [CLK]
# conditions_used: second compound 0.0316 µM; first compound 3.16 µM; stronger effect = lower value
Write the number in % without appending the unit.

// known answers, use as guide
molecule	numeric_result
CC1(C)CCC(CN2CCN(c3ccc(C(=O)NS(=O)(=O)c4ccc(NCC5CCOCC5)c([N+](=O)[O-])c4)c(Oc4cnc5[nH]ccc5c4)c3)CC2)=C(c2ccc(Cl)cc2)C1 + CNC(=O)c1ccc(Nc2nc(OC3CCCC3)c3c(-c4ccc5nc(C)oc5c4)c[nH]c3n2)c(OC)c1	69.4
C#Cc1c(F)ccc2cc(O)cc(-c3ncc4c(N5CC6CCC(C5)N6)nc(OCC56CCCN5CC(F)C6)nc4c3F)c12 (stereo unspecified) + CN1CCN(c2cc(C(=O)Nc3cc4cc(-c5cnn(C)c5)ccc4cn3)ccn2)CC1	56
CC(Nc1ccc2c(c1)OCCn1cc(N3C(=O)OCC3C(F)F)nc1-2)C(N)=O (stereo unspecified) + CNC(=O)c1ccc(Nc2nc(OC3CCCC3)c3c(-c4ccc5nc(C)oc5c4)c[nH]c3n2)c(OC)c1	22.2
CC(CO)NC(=O)c1cc(-c2ccc(Cl)cc2)nn(-c2cnn(C)c2)c1=O (stereo unspecified) + CN1CCN(c2cc(C(=O)Nc3cc4cc(-c5cnn(C)c5)ccc4cn3)ccn2)CC1	63.6
CC(=O)O[C@H]1C(=O)[C@@]2(C)[C@H]([C@H](OC(=O)c3ccccc3)[C@]3(O)C[C@H](OC(=O)[C@H](O)[C@@H](NC(=O)c4ccccc4)c4ccccc4)C(C)=C1C3(C)C)[C@]1(OC(C)=O)CO[C@@H]1C[C@@H]2O + CNC(=O)c1ccc(Nc2nc(OC3CCCC3)c3c(-c4ccc5nc(C)oc5c4)c[nH]c3n2)c(OC)c1	17.1

Shifting focus to the molecule that follows.
Entry under review: COc1ccc([C@@H](O)c2cc(-c3ncnc4cc(N5CCOCC5)ccc34)c(F)cc2Cl)nn1 + CN1CCN(c2cc(C(=O)Nc3cc4cc(-c5cnn(C)c5)ccc4cn3)ccn2)CC1 . Reported viability, T/C?
44.1
